# system: UniProtKB P41587
# Sequence (P41587 24-438): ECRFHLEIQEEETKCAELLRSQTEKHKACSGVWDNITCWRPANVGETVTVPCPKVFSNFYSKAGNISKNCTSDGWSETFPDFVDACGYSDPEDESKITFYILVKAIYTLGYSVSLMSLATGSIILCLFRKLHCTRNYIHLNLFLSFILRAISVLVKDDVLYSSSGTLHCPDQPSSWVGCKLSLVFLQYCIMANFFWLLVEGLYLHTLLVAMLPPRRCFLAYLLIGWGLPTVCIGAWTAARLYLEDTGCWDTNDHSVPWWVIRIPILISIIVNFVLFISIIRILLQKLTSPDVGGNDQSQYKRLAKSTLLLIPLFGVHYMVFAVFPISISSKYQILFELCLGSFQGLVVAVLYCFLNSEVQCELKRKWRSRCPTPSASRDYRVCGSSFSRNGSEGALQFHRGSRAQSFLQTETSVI
# assayComment: Inhibition of VIP-induced β-arrestin recruitment (% Activity Arrestin)
# Type: cell-based
# Parameters: expressed in transfected cells; host or cells: HEK293 cells transfected with VIPR2 in pCDNA3.1 (as described)
# measurementConditions: 0.5 μM, Batch 3
readout: inhibition at 0.5 µM (%)

[A] Nc1ccc(S(=O)(=O)NC[C@@H](O)C[C@@H](Cc2ccccc2)C(=O)N[C@H]2c3ccccc3C[C@H]2O)cc1 [Compound X081]
[B] O=C(NCc1ccccc1)c1ccc(S(=O)(=O)NC[C@@H](O)C[C@@H](Cc2ccccc2)C(=O)N[C@H]2c3ccccc3C[C@H]2O)cc1 [Compound X098]
[C] CCCCNC(=O)c1ccc(S(=O)(=O)NC[C@@H](O)C[C@@H](Cc2ccccc2)C(=O)N[C@H]2c3ccccc3C[C@H]2O)cc1 [Compound X100]
Query: Rank ascending by inhibition at 0.5 µM. Hello, could you send the labels back in the order asked? Thank you.
Result: A, C, B
(A: -5.6%, C: -0.4%, B: 4.8%)

Ref: patent US20150239831A1
